Biological target: hCav1.2 (Homo sapiens, UniProt Q13936)
Construct: expressed in transfected cells; host or cells: CHO
Sequence (Q13936 whole entry): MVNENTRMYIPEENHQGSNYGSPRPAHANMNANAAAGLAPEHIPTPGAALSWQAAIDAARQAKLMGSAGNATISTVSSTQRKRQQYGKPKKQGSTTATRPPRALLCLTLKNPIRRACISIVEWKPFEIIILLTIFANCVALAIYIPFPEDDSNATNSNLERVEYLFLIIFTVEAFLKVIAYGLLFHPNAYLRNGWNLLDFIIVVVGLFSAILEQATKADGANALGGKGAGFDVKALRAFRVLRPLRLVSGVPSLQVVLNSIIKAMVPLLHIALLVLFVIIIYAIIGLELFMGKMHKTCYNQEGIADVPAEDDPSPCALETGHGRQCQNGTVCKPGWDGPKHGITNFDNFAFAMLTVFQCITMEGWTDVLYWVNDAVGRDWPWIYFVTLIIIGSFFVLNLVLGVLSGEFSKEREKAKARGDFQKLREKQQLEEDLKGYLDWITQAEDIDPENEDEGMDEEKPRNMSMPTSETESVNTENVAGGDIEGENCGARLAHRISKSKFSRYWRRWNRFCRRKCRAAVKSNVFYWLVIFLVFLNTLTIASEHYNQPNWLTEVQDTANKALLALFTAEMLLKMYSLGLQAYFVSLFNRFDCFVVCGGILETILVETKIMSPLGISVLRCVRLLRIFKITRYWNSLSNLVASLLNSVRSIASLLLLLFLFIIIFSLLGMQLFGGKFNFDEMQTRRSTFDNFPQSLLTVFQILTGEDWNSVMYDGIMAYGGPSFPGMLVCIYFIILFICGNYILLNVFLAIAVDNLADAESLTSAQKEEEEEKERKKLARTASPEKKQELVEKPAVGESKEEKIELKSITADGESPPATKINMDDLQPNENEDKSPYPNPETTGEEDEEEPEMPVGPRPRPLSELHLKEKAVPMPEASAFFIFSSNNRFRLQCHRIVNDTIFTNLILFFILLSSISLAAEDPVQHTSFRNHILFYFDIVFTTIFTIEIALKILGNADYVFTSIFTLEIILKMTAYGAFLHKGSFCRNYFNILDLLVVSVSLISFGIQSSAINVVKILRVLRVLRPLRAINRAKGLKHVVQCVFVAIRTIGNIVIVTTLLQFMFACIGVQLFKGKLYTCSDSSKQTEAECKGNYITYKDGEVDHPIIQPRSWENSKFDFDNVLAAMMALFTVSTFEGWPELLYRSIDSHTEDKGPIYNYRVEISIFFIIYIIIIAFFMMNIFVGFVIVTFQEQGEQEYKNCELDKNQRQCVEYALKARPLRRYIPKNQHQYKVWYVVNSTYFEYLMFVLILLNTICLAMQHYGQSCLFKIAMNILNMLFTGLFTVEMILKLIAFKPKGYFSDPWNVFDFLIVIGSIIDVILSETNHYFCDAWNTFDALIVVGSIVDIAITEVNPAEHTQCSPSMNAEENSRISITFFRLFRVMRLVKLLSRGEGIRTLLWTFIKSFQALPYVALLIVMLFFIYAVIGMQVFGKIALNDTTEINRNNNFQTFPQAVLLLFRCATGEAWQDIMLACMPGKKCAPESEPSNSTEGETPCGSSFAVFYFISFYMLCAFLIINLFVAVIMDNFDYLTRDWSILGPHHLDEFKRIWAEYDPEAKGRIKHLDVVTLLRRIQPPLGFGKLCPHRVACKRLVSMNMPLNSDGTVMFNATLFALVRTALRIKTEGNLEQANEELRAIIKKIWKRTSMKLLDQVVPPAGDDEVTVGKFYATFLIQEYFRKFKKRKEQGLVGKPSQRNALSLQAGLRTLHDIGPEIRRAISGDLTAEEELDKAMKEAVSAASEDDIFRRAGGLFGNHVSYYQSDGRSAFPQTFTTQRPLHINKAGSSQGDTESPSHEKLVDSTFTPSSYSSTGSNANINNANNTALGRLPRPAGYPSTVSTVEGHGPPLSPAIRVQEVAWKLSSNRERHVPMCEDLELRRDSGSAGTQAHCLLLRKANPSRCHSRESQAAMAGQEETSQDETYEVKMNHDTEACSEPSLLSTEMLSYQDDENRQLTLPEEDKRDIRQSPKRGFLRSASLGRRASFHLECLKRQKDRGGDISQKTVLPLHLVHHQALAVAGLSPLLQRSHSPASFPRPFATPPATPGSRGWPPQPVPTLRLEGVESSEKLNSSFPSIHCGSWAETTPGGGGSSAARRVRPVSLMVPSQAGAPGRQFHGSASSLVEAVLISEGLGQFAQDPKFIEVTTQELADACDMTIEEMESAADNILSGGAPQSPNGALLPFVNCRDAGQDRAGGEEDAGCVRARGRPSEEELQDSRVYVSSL
Experiment: Automated patch clamp (QPatch), L-type Ca2+ current ICaL
Assay type: cell-based
Conditions: room temperature; dash = no effect or IC50 much higher than tested concentrations
Hi there, I'd appreciate the recorded pIC50 for every entry that follows.
Lab note: report pIC50 as minus log10 of the concentration in molar units, number only.

## Input Sample COc1cc(N)c(Cl)cc1C(=O)NC1CCN(CCCOc2ccc(F)cc2)CC1OC (stereo not drawn) [Cisapride] — what was its pIC50?
## Output 4.48

## Input Using the record for COc1ccccc1OCC(O)CN1CCN(CC(=O)Nc2c(C)cccc2C)CC1 (stereo not drawn) , report its pIC50.
## Output 3.81

## Input I have this molecule here, CC(C)N(CCC(C(N)=O)(c1ccccc1)c1ccccn1)C(C)C (stereo not drawn) [Disopyramide] , and I need its recorded pIC50.
## Output 3.94

* * *

Tested on: rabbit Purkinje fibers
Assay: In vitro drug assay on rabbit Purkinje fibers (microelectrode AP recordings)
Conditions: slow pacing, across tested concentrations
recorded.metric: EADs occurrence in rabbit experiments

As a guide, the following entries are already answered.
1. COc1ccccc1OCC(O)CN1CCN(CC(=O)Nc2c(C)cccc2C)CC1 (stereo not drawn)	no EADs were observed
2. CC(C)COCC(CN(Cc1ccccc1)c1ccccc1)N1CCCC1 (stereo not drawn)	no EADs were observed
3. COc1cc(N)c(Cl)cc1C(=O)NC1CCN(CCCOc2ccc(F)cc2)CC1OC (stereo not drawn) [Cisapride]	induced EADs
4. COc1ccc(CCN2CCC(Nc3nc4ccccc4n3Cc3ccc(F)cc3)CC2)cc1	induced EADs

// next entry
## Input For the compound CC(C)(C)c1ccc(C(O)CCCN2CCC(C(O)(c3ccccc3)c3ccccc3)CC2)cc1 (stereo not drawn) , what EADs occurrence in rabbit experiments is on record?
## Output no EADs were observed

* * *

Tested on: rabbit Purkinje fibers
Test: In vitro drug assay on rabbit Purkinje fibers (microelectrode AP recordings)
Settings: slow pacing; compared with clinical risk
recorded.metric: Risk classification based on EADs occurrence, in vitro rabbit

1. CC(C)(C)c1ccc(C(O)CCCN2CCC(C(O)(c3ccccc3)c3ccccc3)CC2)cc1 (centres unmarked) [Terfenadine]	misclassified
2. CC(C)COCC(CN(Cc1ccccc1)c1ccccc1)N1CCCC1 (centres unmarked) [Bepridil]	misclassified
3. COc1ccccc1OCC(O)CN1CCN(CC(=O)Nc2c(C)cccc2C)CC1 (centres unmarked) [Ranolazine]	misclassified

* * *

Molecular target: hNav1.5 (Homo sapiens, UniProt Q14524)
Construct: expressed in transfected cells; host or cells: HEK-293
Sequence (Q14524 whole entry): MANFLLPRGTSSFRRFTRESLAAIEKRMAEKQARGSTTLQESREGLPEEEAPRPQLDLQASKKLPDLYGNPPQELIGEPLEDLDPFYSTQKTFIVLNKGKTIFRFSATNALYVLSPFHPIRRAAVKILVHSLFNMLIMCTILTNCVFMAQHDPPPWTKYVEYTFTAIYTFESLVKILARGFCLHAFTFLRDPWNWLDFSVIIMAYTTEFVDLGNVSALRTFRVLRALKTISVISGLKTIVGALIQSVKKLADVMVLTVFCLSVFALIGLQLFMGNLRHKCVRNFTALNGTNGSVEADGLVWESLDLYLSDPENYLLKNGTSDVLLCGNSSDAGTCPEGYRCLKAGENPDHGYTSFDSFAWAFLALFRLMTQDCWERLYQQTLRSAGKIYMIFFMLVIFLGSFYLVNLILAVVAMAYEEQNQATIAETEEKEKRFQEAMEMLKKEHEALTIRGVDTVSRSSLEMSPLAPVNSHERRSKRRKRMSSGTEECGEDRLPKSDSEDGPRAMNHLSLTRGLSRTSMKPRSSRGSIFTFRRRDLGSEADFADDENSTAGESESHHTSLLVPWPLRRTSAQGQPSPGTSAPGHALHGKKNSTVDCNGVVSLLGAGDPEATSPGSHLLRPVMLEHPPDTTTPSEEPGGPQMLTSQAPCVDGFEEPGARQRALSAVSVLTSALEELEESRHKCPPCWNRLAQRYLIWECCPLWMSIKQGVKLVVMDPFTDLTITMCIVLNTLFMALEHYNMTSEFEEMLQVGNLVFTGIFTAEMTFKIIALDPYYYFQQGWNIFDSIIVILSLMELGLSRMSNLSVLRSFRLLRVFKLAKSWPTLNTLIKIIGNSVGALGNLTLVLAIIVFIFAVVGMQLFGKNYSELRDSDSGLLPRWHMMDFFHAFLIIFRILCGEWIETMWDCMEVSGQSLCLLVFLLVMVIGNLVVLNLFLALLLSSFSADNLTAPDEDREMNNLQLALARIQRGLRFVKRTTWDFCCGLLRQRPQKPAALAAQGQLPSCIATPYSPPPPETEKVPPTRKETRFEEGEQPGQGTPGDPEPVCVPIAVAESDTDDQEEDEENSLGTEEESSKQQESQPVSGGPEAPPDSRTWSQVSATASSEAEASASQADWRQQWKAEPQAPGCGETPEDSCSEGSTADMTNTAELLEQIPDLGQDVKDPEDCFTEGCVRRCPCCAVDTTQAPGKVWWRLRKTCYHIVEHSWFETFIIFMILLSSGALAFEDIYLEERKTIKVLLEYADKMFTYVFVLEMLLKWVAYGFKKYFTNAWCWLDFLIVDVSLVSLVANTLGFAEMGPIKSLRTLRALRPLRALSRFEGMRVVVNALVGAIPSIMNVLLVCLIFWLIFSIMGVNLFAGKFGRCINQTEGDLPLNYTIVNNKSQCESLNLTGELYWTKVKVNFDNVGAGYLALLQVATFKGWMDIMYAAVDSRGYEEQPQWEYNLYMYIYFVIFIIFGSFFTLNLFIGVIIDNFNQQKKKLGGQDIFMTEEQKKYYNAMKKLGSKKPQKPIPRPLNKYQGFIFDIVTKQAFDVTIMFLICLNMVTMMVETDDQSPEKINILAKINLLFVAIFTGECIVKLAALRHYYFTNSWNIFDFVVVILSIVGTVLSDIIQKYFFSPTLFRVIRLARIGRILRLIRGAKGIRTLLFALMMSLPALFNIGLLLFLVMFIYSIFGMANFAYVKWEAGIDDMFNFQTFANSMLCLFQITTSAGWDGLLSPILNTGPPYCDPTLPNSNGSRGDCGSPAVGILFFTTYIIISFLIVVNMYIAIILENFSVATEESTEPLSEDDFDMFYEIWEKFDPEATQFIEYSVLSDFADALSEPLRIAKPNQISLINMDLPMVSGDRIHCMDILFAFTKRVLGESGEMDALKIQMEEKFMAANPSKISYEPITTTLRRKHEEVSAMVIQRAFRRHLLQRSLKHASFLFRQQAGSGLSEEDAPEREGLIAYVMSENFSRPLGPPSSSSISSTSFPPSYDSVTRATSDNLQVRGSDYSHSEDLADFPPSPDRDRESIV
Assay: Automated patch clamp (QPatch), fast Na+ current INa
Assay type: cell-based
Details: room temperature; dash = no effect or IC50 much higher than tested concentrations
recorded.metric: pIC50
# pIC50: negative log10 of molar concentration; output just the value

## Input What value of pIC50 has been recorded for this entry: CC(C)COCC(CN(Cc1ccccc1)c1ccccc1)N1CCCC1 (stereo not shown) [Bepridil]
## Output 5.51

* * *

Molecular target: hKv4.3 (Homo sapiens)
Sequence (Q9UK17 whole entry): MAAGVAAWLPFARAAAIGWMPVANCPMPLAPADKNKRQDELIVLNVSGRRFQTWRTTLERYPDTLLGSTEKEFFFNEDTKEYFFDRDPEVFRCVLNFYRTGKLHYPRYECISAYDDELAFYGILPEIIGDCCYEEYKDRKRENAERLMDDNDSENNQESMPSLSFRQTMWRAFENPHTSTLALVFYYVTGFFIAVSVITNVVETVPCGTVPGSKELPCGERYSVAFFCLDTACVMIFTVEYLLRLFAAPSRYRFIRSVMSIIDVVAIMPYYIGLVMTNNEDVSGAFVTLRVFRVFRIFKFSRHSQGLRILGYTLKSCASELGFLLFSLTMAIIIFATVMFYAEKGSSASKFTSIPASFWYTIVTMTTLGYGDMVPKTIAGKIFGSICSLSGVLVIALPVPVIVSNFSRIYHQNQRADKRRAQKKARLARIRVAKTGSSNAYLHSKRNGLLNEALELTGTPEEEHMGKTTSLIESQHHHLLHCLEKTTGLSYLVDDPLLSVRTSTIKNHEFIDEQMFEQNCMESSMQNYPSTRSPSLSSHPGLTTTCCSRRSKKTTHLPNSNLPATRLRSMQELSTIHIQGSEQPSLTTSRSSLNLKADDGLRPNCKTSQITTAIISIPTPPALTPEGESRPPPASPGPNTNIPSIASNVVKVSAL
Test: Automated patch clamp (QPatch), transient outward K+ current Ito
Details: room temperature; dash = no effect or IC50 much higher than tested concentrations
recorded.metric: pIC50
The meaning of pIC50 here: minus log10 of the concentration in molar units.

## Input Form: Entry = `COc1ccc([C@@H]2Sc3ccccc3N(CCN(C)C)C(=O)[C@@H]2OC(C)=O)cc1` | System = hKv4.3 (Homo sapiens) | pIC50 = ____
## Output 4.08

## Input API: value(readout=pIC50, system=hKv4.3 (Homo sapiens)) for record `COC(=O)C1=C(C)NC(C)=C(C(=O)OC)C1c1ccccc1[N+](=O)[O-]`
## Output 4.51

## Input What value of pIC50 on hKv4.3 (Homo sapiens) does `COc1ccc(CCN2CCC(Nc3nc4ccccc4n3Cc3ccc(F)cc3)CC2)cc1` have?
## Output 4.66

## Input Checklist item: pIC50 tested on hKv4.3 (Homo sapiens), entry CC(C)COCC(CN(Cc1ccccc1)c1ccccc1)N1CCCC1 (centres unmarked) , value?
## Output 4.89

## Input Write down the reported pIC50 of CC(C)(C)c1ccc(C(O)CCCN2CCC(C(O)(c3ccccc3)c3ccccc3)CC2)cc1 (centres unmarked) , test system: hKv4.3 (Homo sapiens).
## Output 4.17
